Target: human CB1 receptor (Homo sapiens, UniProt P21554)
Construct: expressed in transfected cells; host or cells: SK-N-MC cells, stably transfected with pcDNA3 CB-1 (human); semi-purified membrane pellet
Sequence (P21554 whole entry): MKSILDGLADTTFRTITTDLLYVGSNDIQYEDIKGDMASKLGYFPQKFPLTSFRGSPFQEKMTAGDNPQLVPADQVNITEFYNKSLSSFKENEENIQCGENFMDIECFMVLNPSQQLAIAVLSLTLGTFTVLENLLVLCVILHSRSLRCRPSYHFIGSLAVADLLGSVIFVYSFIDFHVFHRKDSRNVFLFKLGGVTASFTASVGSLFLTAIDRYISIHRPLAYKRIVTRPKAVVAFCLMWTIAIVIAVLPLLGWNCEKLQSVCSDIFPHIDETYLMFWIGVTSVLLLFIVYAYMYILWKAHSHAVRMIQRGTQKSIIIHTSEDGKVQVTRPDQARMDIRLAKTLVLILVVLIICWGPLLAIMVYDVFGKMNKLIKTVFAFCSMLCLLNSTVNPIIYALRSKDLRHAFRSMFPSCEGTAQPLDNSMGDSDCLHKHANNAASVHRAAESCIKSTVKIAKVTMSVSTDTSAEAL
Assay: Binding assay for CB1 agonists or inverse agonists, [3H]-CP-55,940 displacement on membranes of transfected SK-N-MC cells
testReadout: pIC50
Please express pIC50 as -log10 of the molar concentration.

Tested on human CB1 receptor (Homo sapiens, UniProt P21554): "C[C@@H](NC(=O)[C@@H]1CCCc2c1nn(-c1ccc(Cl)cc1Cl)c2-c1ccc(Br)cc1)c1ccccc1" . Observed pIC50: 9.10

Others:
Tested on human CB1 receptor (Homo sapiens, UniProt P21554): "C[C@@H](NC(=O)[C@@H]1CCCc2c1nn(-c1ccc(Cl)cc1Cl)c2-c1ccc(Br)s1)C1CCCCC1" . Observed pIC50: 8.52

Tested on human CB1 receptor (Homo sapiens, UniProt P21554): CC(NC(=O)C1CCCc2c1nn(Cc1ccccc1)c2-c1ccc(Cl)cc1)C1CCCCC1 (stereo not drawn) . Observed pIC50: 6.15
